Reference source for all entries: patent US20220332804A1

Target: T1, human complement C2 (human, UniProt P06681 21-752)
T1 construct: Recombinant full-length human C2 with C-terminal 8x His tag, purified from Expi293F supernatant; also called human C2; huC2
T1 sequence: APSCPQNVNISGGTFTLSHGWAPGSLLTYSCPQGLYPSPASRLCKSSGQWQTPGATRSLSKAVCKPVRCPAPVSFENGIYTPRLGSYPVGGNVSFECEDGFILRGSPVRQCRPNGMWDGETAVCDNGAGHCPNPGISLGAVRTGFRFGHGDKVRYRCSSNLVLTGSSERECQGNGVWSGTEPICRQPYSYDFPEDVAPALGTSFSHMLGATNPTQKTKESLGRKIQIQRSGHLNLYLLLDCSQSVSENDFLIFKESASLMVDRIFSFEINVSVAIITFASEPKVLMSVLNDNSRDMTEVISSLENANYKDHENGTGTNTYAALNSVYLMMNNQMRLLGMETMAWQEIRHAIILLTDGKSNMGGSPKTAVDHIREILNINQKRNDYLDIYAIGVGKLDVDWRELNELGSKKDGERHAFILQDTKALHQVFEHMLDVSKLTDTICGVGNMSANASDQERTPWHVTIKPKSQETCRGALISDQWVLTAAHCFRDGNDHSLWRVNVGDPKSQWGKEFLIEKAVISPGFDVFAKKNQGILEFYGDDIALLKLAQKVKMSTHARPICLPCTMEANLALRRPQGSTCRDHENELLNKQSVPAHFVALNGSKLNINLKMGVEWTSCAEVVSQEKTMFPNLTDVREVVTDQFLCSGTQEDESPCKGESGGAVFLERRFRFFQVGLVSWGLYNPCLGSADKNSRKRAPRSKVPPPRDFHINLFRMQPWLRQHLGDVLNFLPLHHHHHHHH
Experiment: SPR, mAb captured, C2 analyte, MHAs buffer, pH 5.8, steady state
property: Kd (µM)
Note: unit µM is implicit; provide only the numeric part.

Which measured Kd value corresponds to RF16-214G (antibody, V domains shown) VH: EVQLLESGGGLVQPGGSLRLSCAASGFTFSWYQMMWVRQAPGKGLEWVSRIYPSGGGTAYADSVKGRFTISRDNSKNTLYLQMNSLRAEDTAVYYCARDAGYGDNWGQGTLVTVSS VL: SYELTQPPSVSVSPGQTASITCSGDKLGEKYASWYQQKPGQSPVLVIYQDRKRPSGIPERFSGSNSGNTATLTISGTQAMDEADYYCQAWDTRAVVFGGGTKLTVLG ?
3.34
